Attribution: a melting point compilation (Tetko et al.)

Entries and their measured melting point follow.

The recorded melting point for entry `O=C(Oc1ccc2ccccc2c1-c1c(OC(=O)c2ccccc2)ccc2ccccc12)c1ccccc1` equals 163 to 166 °C

The molecule `Nc1ccccc1OCCN1CCOCC1` showed melting point equal to 41 to 42 °C

The molecule `CC(C)(C)C(=O)OCC(N)=S` showed melting point equal to 84 to 85 °C

# melting point of `COc1cccc(/N=C(\C)c2c(O)c3ccccc3n(-c3ccccc3)c2=O)c1` = 178 to 179 °C

====

melting point values, listed per item

[[record]]
compound = "O=C(Cl)c1cc(-c2cccs2)on1"
reported_result = "77 to 78 °C"

[[record]]
compound = "Cn1ccc2cc([N+](=O)[O-])ccc21"
reported_result = "167 to 169 °C"

[[record]]
compound = "Cc1nnc(S)n1-c1ccc(OCc2ccccc2)cc1"
reported_result = "255 to 257 °C"

[[record]]
compound = "CC1C(=O)C23C(O)CC4C(C)(C)CCCC45COC(CC1C2O)C53 (stereo unspecified)"
reported_result = "218 to 221 °C"

[[record]]
compound = "O=[N+]([O-])c1cccc([N+](=O)[O-])c1CO"
reported_result = "85 to 95 °C"

[[record]]
compound = "CCC1C2=C(OC(=O)C1(C)C)c1ccc(OC)cc1CC2 (stereo unspecified)"
reported_result = "142 to 143 °C"

[[record]]
compound = "O=c1c(O)c(O)c(=O)c1=O"
reported_result = "331 to 334 °C"

[[record]]
compound = "OCc1ccc(-c2cccs2)nc1"
reported_result = "124 to 125 °C"


compound `O=S(=O)(Cl)c1ccccc1I` , melting point observed: 51 to 52 °C

Measured melting point, CCC1C(C)=NN=C(c2ccc(OC)c(OC)c2)c2cc(OC)c(OC)cc21 (stereo unspecified) : 156 °C

The value of melting point measured for the compound `CCCCCCCCCCCC(=O)OCC` turned out to be -2 °C

// sample `Cc1cccc(CCC(=O)O)c1` , its melting point was 41 to 44 °C

The compound `Ic1cc2ccccc2c2ccccc12` showed melting point equal to 92 °C

====

Reported melting point values for the following compounds.

// known answers, use as guide
[[record]]
compound = "CCOC(=O)c1[nH]c2cc(Cl)cc(Cl)c2c1C=O"
reported_result = "213 to 217 °C"

[[record]]
compound = "Nc1nc(Cl)c2ncn(C3OC(CO)C(O)C3O)c2n1 (stereo not drawn)"
reported_result = "166 to 167 °C"


Field: next compound
// recorded melting point for `CC(C)(C)OC(=O)N1CCC(Oc2ccc([N+](=O)[O-])cc2)CC1` : 99 to 101 °C

====

Consider the following compounds and their measured melting point readings.

Use these answered entries as a reference point.
[[record]]
compound = "Cc1ccc(S(=O)(=O)c2ncsc2SCC(=O)c2ccc(Cl)cc2)cc1"
measured_quantity = "melting point"
reported_result = "212 to 213 °C"

[[record]]
compound = "N#Cc1cc(N)ccc1-n1cccc1"
measured_quantity = "melting point"
reported_result = "135 to 136 °C"

[[record]]
compound = "O=C(Cl)c1cc(Br)cc2c1OCC2"
measured_quantity = "melting point"
reported_result = "126 to 127 °C"


Alright, here's another compound for you.
Record summary for `N#Cc1ccc2c(c1)[N+]([O-])=C(c1cccc(C3=[N+]([O-])c4cc(C#N)ccc4C3=O)c1)C2=O` : reported melting point = 270 to 320 °C
